Cited source for all entries: patent US7592366B2

target: hEP3A/Gqi5 (Homo sapiens); construct: expressed in transfected cells; host or cells: HEK-293(EBNA); assay: FLIPR calcium signal, hEP3A; assay type: cell-based; conditions: read-out: Other Receptors (EC50 in nM) hEP3A
Sequence (P43115 whole entry): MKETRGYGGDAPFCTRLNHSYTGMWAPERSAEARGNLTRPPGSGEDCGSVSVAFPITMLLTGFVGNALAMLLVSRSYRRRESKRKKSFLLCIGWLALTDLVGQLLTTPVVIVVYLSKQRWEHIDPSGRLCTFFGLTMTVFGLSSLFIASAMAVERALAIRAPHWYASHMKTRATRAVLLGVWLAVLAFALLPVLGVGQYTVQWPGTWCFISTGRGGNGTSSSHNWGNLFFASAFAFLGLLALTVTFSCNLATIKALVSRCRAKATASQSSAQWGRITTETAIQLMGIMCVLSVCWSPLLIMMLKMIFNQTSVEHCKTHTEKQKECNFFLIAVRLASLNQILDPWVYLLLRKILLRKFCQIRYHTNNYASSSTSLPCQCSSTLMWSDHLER
endpoint: EC50 (nM)
# output: bare number, implied unit nM

**Q:** Quick one: EC50 for O=C(O)c1ccc(CCC[C@@H]2[C@@H](CCc3cc(F)cc(F)c3)[C@H](O)C[C@H]2Cl)s1 [11d] ?
**A:** 8540

----------
molecular target: hDP/Gqs5 (Homo sapiens, UniProt Q13258); construct: expressed in transfected cells; host or cells: HEK-293(EBNA); assay: FLIPR calcium signal, hDP; type: cell-based; conditions: read-out: Other Receptors (EC50 in nM) hDP
Sequence (Q13258 whole entry): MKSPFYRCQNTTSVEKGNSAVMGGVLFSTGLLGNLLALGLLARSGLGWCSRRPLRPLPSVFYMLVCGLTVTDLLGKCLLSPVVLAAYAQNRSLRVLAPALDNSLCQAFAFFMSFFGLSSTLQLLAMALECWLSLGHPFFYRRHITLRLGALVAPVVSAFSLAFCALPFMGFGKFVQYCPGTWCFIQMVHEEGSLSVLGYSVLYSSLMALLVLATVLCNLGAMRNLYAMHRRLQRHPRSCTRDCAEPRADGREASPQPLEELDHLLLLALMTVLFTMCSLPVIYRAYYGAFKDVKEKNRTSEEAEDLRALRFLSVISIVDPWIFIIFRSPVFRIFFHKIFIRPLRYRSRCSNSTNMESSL
endpoint: EC50 (nM)

INSERT INTO results (molecule, endpoint, reported_measurement) VALUES
  ('O=C(O)c1ccc(CCC[C@@H]2[C@@H](CCc3cc(F)cc(F)c3)[C@H](O)C[C@H]2Cl)s1 [11d]', 'EC50', 12700);

A. Cc1cc(C)cc(CC[C@@H]2[C@@H](CCCc3ccc(C(=O)O)s3)[C@H](Cl)C[C@H]2O)c1 [11e]
B. O=C(O)c1ccc(CCC[C@@H]2[C@@H](CCc3cc(Cl)cc(CO)c3)[C@H](O)C[C@H]2Cl)s1 [11c]
**Q:** Param pair: A , B . Output: the one whose EC50 is numerically greater. Record your answer as the label of the chosen record.
**A:** A
